So I've got a bunch of molecules here, and I need their cytotoxicity at 10 µM values.
procedure_text: Toxicity liver stage against HepG2, at 10uM
Format: cell-based
Set-up: test concentration 10 uM, cell line HepG2-A16-CD81EGFP
condition_details: human, HepG2-A16-CD81EGFP cells; read-out: INHIBITION
One number for each entry, in %.

Enquiry: I would be grateful if you could share the reported cytotoxicity at 10 µM for `CCCc1nc(C(=O)N[C@H]2COC[C@@H]2N2CCN(C)CC2)cs1` .
Return: -23.8

Enquiry: I would be grateful if you could share the reported cytotoxicity at 10 µM for `O=C(CC1=CCCCC1)NCCc1csc(N2CCCC2)n1` .
Return: -7.63

Enquiry: I would be grateful if you could share the reported cytotoxicity at 10 µM for `CN(C)S(=O)(=O)N1CCN(c2ccnc(N3CCCC3)n2)CC1` .
Return: -13.3

Can you give me cytotoxicity at 10 µM for all of these, one by one?
1. O=C(C1CC1)N1CCc2[nH]cnc2C12CCN(C1CCOCC1)CC2
2. CN1C(=O)C2(CCN(c3nccc4occc34)CC2)c2ccccc21
3. CC(C)c1nc(C2CCCN2C(=O)CCn2cncn2)no1 (configuration not stated)

Return:
1: -1.16; 2: 1.16; 3: -2.38

Can you give me cytotoxicity at 10 µM for all of these, one by one?
1. CCN1CC(C(=O)N2CCc3cc(C(N)=O)n(C)c3C2)CCC1=O (configuration not stated)
2. COc1ccc(C2CC(=O)Nc3c2nc2n3CCCC2)cc1OC (configuration not stated)
3. CCCn1nc2c(cc1=O)CN(CC(=O)Nc1cc(C)no1)CC2
4. NC1CCC(n2cc(C(=O)NC3CCc4ccccc4C3)nn2)CC1 (configuration not stated)
5. CCOCC(=O)Nc1cccc(Oc2ccccn2)c1
6. COC(=O)N1CCC(Nc2cccc(F)c2C(C)=O)C1 (configuration not stated)

Return:
1: -44.6; 2: -8.41; 3: -4.59; 4: -4.42; 5: -2.41; 6: 11.2

Values were extracted from ChEMBL document CHEMBL4513216.
